Collected log10 of IC50 values appear next to each entry.
system: SK-OV-3; assay: In vitro inhibitory activity against SK-OV-3 cells using XTT proliferation assay.; type: functional, cell-based; settings: Homo sapiens
The base-10 logarithm of IC50, taken with IC50 in nM, is what appears here.

Write down log10 of IC50 measured for item COc1cc2c(c(OC)c1OC)-c1ccc(OC)c(=O)cc1[C@@H](NC(C)=O)CC2
1.30

Write down log10 of IC50 measured for item COc1ccccc1C(=O)c1cc2cc(C)ccc2[nH]1
2.88

Write down log10 of IC50 measured for item COc1ccc2[nH]c(C(=O)c3ccc(Cl)cc3)cc2c1
3.24

Write down log10 of IC50 measured for item COc1ccc(C(=O)c2cc3cc(OC)ccc3[nH]2)cc1
4.06

Write down log10 of IC50 measured for item COc1cc(OC)c(OC)c(C(=O)c2cc3cc(OC)ccc3[nH]2)c1
3.97

Write down log10 of IC50 measured for item COc1ccc2[nH]c(C(=O)c3ccccc3OC)cc2c1
2.04

Write down log10 of IC50 measured for item COc1ccc(C(=O)c2cc3cc(OC)ccc3[nH]2)c(OC)c1
3.01

Write down log10 of IC50 measured for item COc1ccc2[nH]c(C(=O)c3ccccc3F)cc2c1
2.87

Write down log10 of IC50 measured for item COc1ccc2[nH]c(C(=O)c3cccc(OC(F)(F)F)c3)cc2c1
2.32

###

molecular target: Tubulin beta chain (Bos taurus, UniProt Q6B856); assay: Inhibition of tubulin polymerization.; type: functional
Sequence (Q6B856 whole entry): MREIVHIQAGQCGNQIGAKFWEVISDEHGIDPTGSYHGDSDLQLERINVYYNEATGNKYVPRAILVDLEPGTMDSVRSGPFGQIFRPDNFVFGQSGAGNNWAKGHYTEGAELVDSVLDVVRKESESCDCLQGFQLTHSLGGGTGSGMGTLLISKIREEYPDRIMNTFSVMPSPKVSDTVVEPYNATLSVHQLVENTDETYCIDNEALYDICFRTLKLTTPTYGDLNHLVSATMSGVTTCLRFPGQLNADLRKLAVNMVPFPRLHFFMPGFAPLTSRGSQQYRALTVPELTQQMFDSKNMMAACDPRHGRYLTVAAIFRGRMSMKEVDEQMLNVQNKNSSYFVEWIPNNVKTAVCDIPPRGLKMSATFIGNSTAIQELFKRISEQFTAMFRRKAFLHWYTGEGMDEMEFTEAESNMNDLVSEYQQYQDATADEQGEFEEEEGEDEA
Collected IC50 values appear next to each entry.
Just the number in nM, nothing appended.

Consider the worked cases shown below.
>>> df
                         structure_notation  observation_type  observed_measurement
0  COc1cc(C(=O)c2cc3cc(C)ccc3[nH]2)cc(OC)c1OC              IC50                   860
1     COc1ccc2[nH]c(C(=O)c3cc(C)ccc3C)cc2c1              IC50                  5200

State the measured IC50 (Tubulin beta chain (Bos taurus, UniProt Q6B856)) of COc1ccc2[nH]c(C(=O)c3cccc(N)c3)cc2c1
990

###

system: SK-OV-3; assay: In vitro inhibitory activity against SK-OV-3 cells using XTT proliferation assay.; type: functional, cell-based; settings: Homo sapiens
pIC50: −log10 of the molar value.
Use class 1 when the recorded pIC50 is no lower than 7; use class 0 when it is lower.

>>> df
                      structure_notation  assigned_category
0        COc1ccccc1C(=O)c1cc2ccccc2[nH]1            class 0
1  COc1ccc2[nH]c(C(=O)c3cc(C)ccc3C)cc2c1            class 0

Entry COc1ccc2[nH]c(C(=O)c3ccc(F)cc3)cc2c1 : is its pIC50 no less than 7?
class 0

Entry COc1ccc2[nH]c(C(=O)c3cccc(O)c3)cc2c1 : is its pIC50 no less than 7?
class 0

Entry COc1ccc2[nH]c(C(=O)c3cccc(OC)c3[N+](=O)[O-])cc2c1 : is its pIC50 no less than 7?
class 0

Entry COc1ccc2[nH]c(C(=O)c3ccc(C)cc3)cc2c1 : is its pIC50 no less than 7?
class 0

Entry COc1cc(C(=O)c2cc3cc(C)ccc3[nH]2)cc(OC)c1OC : is its pIC50 no less than 7?
class 1

###

test system: SK-OV-3; test: In vitro inhibitory activity against SK-OV-3 cells using XTT proliferation assay.; type: functional, cell-based; settings: Homo sapiens
observation_type: IC50 (nM)
Just the number in nM, nothing appended.

Consider the worked cases shown below.
In [3]: df
Out[3]:
                         structure_notation  units_symbol  observed_measurement
0  COc1cc(OC)cc(C(=O)c2cc3cc(OC)ccc3[nH]2)c1            nM                    19
1  COc1ccc2[nH]c(C(=O)c3cc(OC)c(OC)c(OC)c3)cc2c1            nM                    58
2     COc1cccc(C(=O)c2cc3cc(OC)ccc3[nH]2)c1            nM                    11

Shifting focus to the compound that follows.
State the measured IC50 (SK-OV-3) of COc1ccc2[nH]c(C(=O)c3ccccc3N)cc2c1
3760
